Target of assay: CYP1A2 (Homo sapiens, UniProt P05177)
Sequence (P05177 whole entry): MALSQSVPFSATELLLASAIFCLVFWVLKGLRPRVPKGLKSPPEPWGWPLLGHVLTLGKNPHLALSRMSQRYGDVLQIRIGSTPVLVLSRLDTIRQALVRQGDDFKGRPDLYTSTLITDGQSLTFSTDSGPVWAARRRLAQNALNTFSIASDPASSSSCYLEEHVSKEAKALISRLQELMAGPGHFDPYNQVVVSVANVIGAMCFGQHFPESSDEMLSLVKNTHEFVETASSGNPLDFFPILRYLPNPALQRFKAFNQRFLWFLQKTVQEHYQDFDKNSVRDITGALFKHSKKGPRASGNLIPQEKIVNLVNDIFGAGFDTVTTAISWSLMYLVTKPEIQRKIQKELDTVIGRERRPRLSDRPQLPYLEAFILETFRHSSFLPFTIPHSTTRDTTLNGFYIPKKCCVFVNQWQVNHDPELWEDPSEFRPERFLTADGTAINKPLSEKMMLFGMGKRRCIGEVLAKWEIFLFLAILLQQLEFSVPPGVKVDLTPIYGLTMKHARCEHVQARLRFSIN
Protocol text: Reversible inhibition of recombinant CYP1A2
Reported property: pIC50
To interpret pIC50, take it as minus log10 of a concentration measured in moles per litre.

# count of solved cases: 3
Molecule: CCCC/C=C\CCCCCCCCCC1=C(c2c(O)cc(O)cc2CCCCCCCCC/C=C\CCCC)C(=O)C=C(OC)C1=O [Demethylbelamcandaquinone B]
Reported property: pIC50
Quantitative result: 4.12

Molecule: CCCC/C=C\CCCCCCCCCc1cc(O)cc2oc3cc(OC)c(O)c(CCCCCCCCC/C=C\CCCC)c3c12 [Fatimahol]
Reported property: pIC50
Quantitative result: 4.32

Molecule: CCCC/C=C\CCCCCCCCCc1cc(O)cc(OC)c1 [Belamcandol B]
Reported property: pIC50
Quantitative result: 3.66

Turning to the following molecule.
Prompt: For the molecule shown here, CCCC/C=C\CCCCCCCCCc1cc(O)cc(O)c1 [5-[10(Z)-pentadecenyl]resorcinol] , give the reported pIC50.
Response: 4.04

###

Target of assay: CYP2C19 (Homo sapiens)
Construct: purchased BD Gentest (Woburn, MA, USA); host or cells: baculovirus expression system
Protocol text: Reversible inhibition (co-incubation assay) of recombinant CYP2C19
Format: in vitro ADME
Details: human, recombinant CYP2C19, recombinant CYP2C19, co-incubation
Reported property: IC50 (µg/mL)
Use µg/mL as the unit, but write only the number.

Prompt: For the compound shown here, CCCC/C=C\CCCCCCCCCc1cc(O)cc(OC)c1 , give the reported IC50.
Response: 2.2

###

Entries and their IC50 values follow.
Target of assay: CYP2C19 (Homo sapiens, UniProt P33261)
Construct: purchased BD Gentest (Woburn, MA, USA); host or cells: baculovirus expression system
Sequence (P33261 whole entry): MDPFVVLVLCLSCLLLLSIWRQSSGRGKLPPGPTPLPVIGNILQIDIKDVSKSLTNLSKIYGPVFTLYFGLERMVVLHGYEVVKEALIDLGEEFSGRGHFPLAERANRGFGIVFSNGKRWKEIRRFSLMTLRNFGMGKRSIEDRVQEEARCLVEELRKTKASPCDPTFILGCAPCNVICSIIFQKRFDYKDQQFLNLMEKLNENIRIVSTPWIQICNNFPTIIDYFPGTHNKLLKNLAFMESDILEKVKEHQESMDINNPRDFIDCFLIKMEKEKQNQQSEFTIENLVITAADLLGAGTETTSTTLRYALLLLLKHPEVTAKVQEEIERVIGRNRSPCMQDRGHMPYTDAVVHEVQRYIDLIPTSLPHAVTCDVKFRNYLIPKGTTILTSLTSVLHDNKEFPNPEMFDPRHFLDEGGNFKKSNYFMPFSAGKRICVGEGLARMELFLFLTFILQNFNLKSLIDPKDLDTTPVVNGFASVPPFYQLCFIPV
Protocol text: Time dependent inhibition (pre-incubation assay) of recombinant CYP2C19
Format: in vitro ADME
Details: recombinant CYP2C19, 30 min pre-incubation
Use µM as the unit, but write only the number.

# count of solved cases: 3
Molecule: CCCC/C=C\CCCCCCCCCc1cc(O)cc2oc3cc(OC)c(O)c(CCCCCCCCC/C=C\CCCC)c3c12
IC50 (µM): 16
//
Molecule: CCCC/C=C\CCCCCCCCCc1cc(O)cc(OC)c1
IC50 (µM): 3.2
//
Molecule: CCCC/C=C\CCCCCCCCCC1=C(c2c(O)cc(O)cc2CCCCCCCCC/C=C\CCCC)C(=O)C=C(OC)C1=O
IC50 (µM): 11

Turning to the following molecule.
Prompt: Given the entry CCCC/C=C\CCCCCCCCCc1cc(O)cc(O)c1 [5-[10(Z)-pentadecenyl]resorcinol] , what IC50 was observed with CYP2C19 (Homo sapiens, UniProt P33261)?
Response: 3.2

###

Protocol text: Estimation of concentration per dose, GIT and plasma concentrations (560 mg KF extract dose)
Design: species or system human
Details: Table 2; 560 mg dose, plasma volume 3 L, 100% bioavailable assumed
Where Estimated Plasma concentration equals or exceeds 1 µg/mL, the correct label is Satisfied; where it does not, the label is Not satisfied.

Compound: CC1(C)[C@@H](O[C@@H]2OC[C@H](O[C@@H]3O[C@H](CO)[C@@H](O)[C@H](O)[C@H]3O[C@@H]3OC[C@@H](O)[C@H](O)[C@H]3O)[C@H](O)[C@H]2O)CC[C@]2(C)[C@H]3CC[C@]45OC[C@@]6(CC[C@](C)(C=O)C[C@H]64)[C@H](O)C[C@@]5(C)[C@]3(C)CC[C@@H]12 [Primulanin]
Category label: Not satisfied
//
Compound: CCCC/C=C\CCCCCCCCCC1=C(c2c(O)cc(O)cc2CCCCCCCCC/C=C\CCCC)C(=O)C=C(OC)C1=O [Demethylbelamcandaquinone B]
Category label: Satisfied
//
Compound: CCCC/C=C\CCCCCCCCCc1cc(O)cc2oc3cc(OC)c(O)c(CCCCCCCCC/C=C\CCCC)c3c12 [Fatimahol]
Category label: Not satisfied
//
Compound: CCCC/C=C\CCCCCCCCCc1cc(O)cc(OC)c1 [Belamcandol B]
Category label: Satisfied
//
Compound: CCCC/C=C\CCCCCCCCCc1cc(O)cc(O)c1 [5-[10(Z)-pentadecenyl]resorcinol]
Category label: Satisfied

Prompt: Test whether the compound C[C@@H]1O[C@@H](O[C@H]2[C@H](O[C@H]3CO[C@@H](O[C@H]4CC[C@]5(C)[C@H]6CC[C@]78OC[C@@]9(CC[C@](C)(C=O)C[C@H]97)C(=O)C[C@@]8(C)[C@]6(C)CC[C@H]5C4(C)C)[C@H](O)[C@H]3O)O[C@H](CO)[C@@H](O)[C@@H]2O)[C@H](O)[C@H](O)[C@H]1O [Ardisimamilloside H] records Estimated Plasma concentration of 1 µg/mL or higher.
Response: Not satisfied
